In this section, each of the compounds is paired with its reported IC50.
# System: K-562
# Method description: Cell proliferation inhibition (CellTiter-Glo), K-562 cells
# Format: cell-based
# Test context: Homo sapiens, K562, 168 h; K-562 (BCR-ABL), Day 7; read-out: K-562 IC50 μM (Day 7)*
Quantity: IC50

• C=CC(=O)N[C@@H]1CCCN(Cc2ccnc(C(C)Nc3ccc(-c4cc5c(N6CCOCC6)ncnc5[nH]4)cc3)c2)C1 (stereo partly drawn) [Compound B0700-514] = > 10 µM
• C=CC(=O)N1CCC(N2CCN(S(=O)(=O)Nc3ccc(-c4cc5c(N6CCOCC6)ncnc5[nH]4)cc3)CC2)CC1 [Compound B0700-612] = > 10 µM
• C=CC(=O)N1CCC(N2CCC(S(=O)(=O)Nc3ccc(-c4cc5c(N6CCOCC6)ncnc5[nH]4)cc3)CC2)CC1 [Compound B0700-610] = > 10 µM
